- measurementNotes: NOD1 signaling inhibitors, primary screen, cell-based, luminescence, uHTS (AID 1578);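 note: HEK-293T reporter cells stimulated with the NOD1 agonist gamma-tri-DAP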
- testContext: NOD1-driven NF-kB luciferase reporter cells, at 4 µM, hits give high values
Hit rate of the full screen: of about 290,000 compounds, about 3,000 (1%) were called active. What follows is part of a selection rich in actives, with near analogues and random picks from the rest.
property: inhibition (%)

compound	property	endpointResult
CCOc1ccc(C(=O)NCC(=O)OCC(=O)N2C(C)CCCC2C)cc1 (centres undefined)	inhibition	-9.2
CCS(=O)(=O)CCSc1nc2ccccc2s1	inhibition	-2.7
CC(C)(C)c1ccc(N/N=C(\C#N)S(=O)(=O)C(C)(C)C)cc1	inhibition	41
CSc1ccccc1C(=O)Nc1nc2ccccc2[nH]1	inhibition	-46.1
O=C(Nc1nc2ccccc2[nH]1)c1cc2ccccc2o1	inhibition	73.5
C/C(=N\Nc1nc2ccccc2[nH]1)c1cc2ccccc2o1	inhibition	-21.6
Clc1ccc(CSc2nnc(-c3ccc4c(c3)OCO4)o2)cc1	inhibition	-7.9
COc1cccc(NC(=O)Cn2nc(Cc3cccnc3)c3ccccc3c2=O)c1	inhibition	-18.3
Cc1ccc(OCC(=O)NC(C)c2ccc(Cl)c(Cl)c2)c([N+](=O)[O-])n1 (centres undefined)	inhibition	-30.1
O=S(=O)(CCSc1ccccn1)c1nc2ccccc2s1	inhibition	74.4
CC(=O)c1c(O)ccc2c(-c3ccccc3)cc(=O)oc12	inhibition	13.4
COc1ccc(C)cc1NC(=O)CSc1nnc(COc2ccc(C)cc2)n1Cc1ccco1	inhibition	28.5
Cc1nn2c3ccccc3n(CC(=O)c3cccs3)c2nc1=O	inhibition	19.3
CC(C)(C)S(=O)(=O)/C(C#N)=N/Nc1ccc(C#N)cc1	inhibition	-38.5
CN(C)N(C)C(=O)C(O)(c1ccccc1)c1ccccc1	inhibition	-18.6
O=C(Nc1nc2ccccc2[nH]1)c1ccccc1F	inhibition	77.3
CC(C)(C)S(=O)(=O)/C(C#N)=N/Nc1ccc(Cl)cc1	inhibition	4.5
CN(Cc1ccccc1)C(=O)CCC(=O)N(C)Cc1ccccc1	inhibition	-41.2
O=C(O)CSc1nnc(-c2ccc3c(c2)OCO3)o1	inhibition	4.3
O=S(=O)(CCSc1nc2ccccc2s1)c1nc2ccccc2s1	inhibition	99
O=C(Nc1nc2ccccc2[nH]1)c1ccc(Br)o1	inhibition	-21.2
COc1ccc(CNC(=O)CSc2nnc(NC(=O)c3ccccc3F)s2)cc1	inhibition	-52.7
COc1ccc(NC(=O)CSc2nc(N)c(NC(=O)c3cccs3)c(=O)[nH]2)cc1	inhibition	-4.6
O=C1OCCC1Sc1nnc(-c2ccc3c(c2)OCO3)o1 (centres undefined)	inhibition	-4.4

====

- measurementNotes: NOD1 signaling inhibitors, primary screen, cell-based, luminescence, uHTS (AID 1578);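 note: HEK-293T reporter cells stimulated with the NOD1 agonist gamma-tri-DAP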
- testContext: NOD1-driven NF-kB luciferase reporter cells, at 4 µM
Screen size: about 290,000 compounds; about 3,000 (1%) were called active. Cut-off read from the data, not from the text of the source: active = inhibition mostly above about 36% (no sharp cut-off); inactive = mostly below about 34%. The full list was thinned out, with actives kept by preference.
Classes used: active, inactive

entrySmiles	classification
CCOc1ccc(C(=O)NC(=S)N(Cc2ccccc2)Cc2ccccc2)cc1	inactive
CCCN(CCC)C(=S)NC(=O)c1ccc(-c2ccccc2)cc1	active
Cc1ccc(C)c(C(=O)N(C)CC(=O)Nc2ccccc2C(F)(F)F)c1	inactive
CCOC(=O)c1sc(N(Cc2ccccc2)C(=O)COC(=O)c2ccc(O)cc2)nc1C	inactive
O=C(O)CCc1[nH]c2ccccc2c1Sc1ccccc1	inactive
CCN(CC)C(=S)NC(=O)c1ccc(F)cc1	inactive
O=C(CCc1[nH]c2ccccc2c1Sc1ccccc1)NCCO	active
O=C(O)CCCC(=O)Nc1ccc(Oc2ncnc3cc(Cl)ccc23)nc1	inactive
CCOC(=O)c1sc(N(Cc2ccccc2)C(=O)CCl)nc1C	active
C=CCOc1c(CNC2CCCC2)cc(Cl)cc1OC	inactive
CNC(=O)CCc1[nH]c2ccccc2c1Sc1ccccc1	inactive
